This collection of values is drawn from paper PMC10648204.

target: human URAT1 (Homo sapiens, UniProt Q96S37); construct: expressed in transfected cells; host or cells: HEK293T cells (ATCC CRL-11268); assay: In vitro URAT1 inhibitory assay (14C-uric acid uptake in HEK293T cells expressing human URAT1); type: cell-based; details: HEK-293T; 10 μM compound; mean of three measurements; HEK293-URAT1 cells, 14C-labeled uric acid substrate
Sequence (Q96S37 whole entry): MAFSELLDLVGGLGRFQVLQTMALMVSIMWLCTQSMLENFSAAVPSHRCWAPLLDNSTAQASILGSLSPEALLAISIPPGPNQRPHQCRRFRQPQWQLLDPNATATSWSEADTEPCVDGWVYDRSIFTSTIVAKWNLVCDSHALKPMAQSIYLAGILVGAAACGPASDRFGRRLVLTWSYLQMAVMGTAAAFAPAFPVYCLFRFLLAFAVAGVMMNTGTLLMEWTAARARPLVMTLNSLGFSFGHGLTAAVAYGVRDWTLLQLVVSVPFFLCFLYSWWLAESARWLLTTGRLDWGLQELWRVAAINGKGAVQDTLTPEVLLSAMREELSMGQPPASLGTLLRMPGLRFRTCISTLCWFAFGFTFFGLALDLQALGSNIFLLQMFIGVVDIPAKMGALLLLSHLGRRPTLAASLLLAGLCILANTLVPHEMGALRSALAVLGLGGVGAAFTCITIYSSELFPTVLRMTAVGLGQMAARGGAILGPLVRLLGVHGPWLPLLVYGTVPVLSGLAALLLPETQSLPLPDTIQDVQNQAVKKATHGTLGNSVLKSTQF
Value Type: inhibition at 10 µM (%)

- Molecule: "O=C(O)c1ccccc1-c1ccccc1C(=O)N1CCCc2ccc(Cl)cc21 [Compound A9]"
  Unit Spec: "%"
  inhibition at 10 µM: 85

I: O=C(O)c1ccccc1-c1ccccc1-c1nc(-c2ccc(Br)cc2)no1 [Compound B4]
II: O=C(O)c1ccccc1-c1ccccc1-c1nc(-c2ccncc2Cl)no1 [Compound B21]
III: O=C(O)c1ccccc1-c1ccccc1C(=O)N1CCCc2ccc(-c3ccc(F)cc3)cc21 [Compound A12]
IV: O=C(O)c1ccccc1-c1ccccc1C(=O)Nc1ccncc1 [Compound A18]
Hello, I need these entries ordered by inhibition at 10 µM, highest reading first. Thanks! List the labels in the requested order.
II, I, III, IV
(II: 98%, I: 61%, III: 29%, IV: 11%)

A: O=C(O)c1ccccc1-c1ccccc1-c1nnc(-c2ccncc2)o1 [Compound B30]
B: O=C(O)c1ccccc1-c1ccccc1-c1nc(-c2cccnc2)no1 [Compound B13]
Higher inhibition at 10 µM between A and B ? To answer, give the label that identifies your chosen option.
B

1: O=C(O)c1ccccc1-c1ccccc1C(=O)N1CCCc2ccc(Br)cc21 [Compound A6]
2: O=C(O)c1cccc(-c2ccccc2-c2nc(-c3ccncc3)no2)c1 [Compound B28]
Higher inhibition at 10 µM between 1 and 2 ? To answer, give the label that identifies your chosen option.
1

I: O=C(O)c1ccccc1-c1ccccc1-c1nc(-c2ccncc2)no1 [Compound B14]
II: COc1cccc(-c2ccc3c(c2)N(C(=O)c2ccccc2-c2ccccc2C(=O)O)CCC3)c1 [Compound A14]
III: O=C(O)c1ccccc1-c1ccccc1C(=O)Nc1ccnc2ccccc12 [Compound A19]
Hello, I need these entries ordered by inhibition at 10 µM, highest reading first. Thanks! List the labels in the requested order.
I, II, III

* * *

Here the recorded melting point is given for each entry.

- Smiles Code: "Cc1ccc2c(c1)CCCN2C(=O)c1ccccc1-c1ccccc1C(=O)O"
  melting point: "220 to 222 °C"
- Smiles Code: "O=C(O)c1ccccc1-c1ccccc1C(=O)N1CCOc2ccccc21"
  melting point: "174 to 176 °C"
- Smiles Code: "O=C(O)c1ccc(-c2ccccc2-c2nc(-c3ccncc3)no2)cc1"
  melting point: "258 to 260 °C"
- Smiles Code: "O=C(O)c1ccccc1-c1ccccc1-c1nc(-c2ccnc(Cl)c2)no1"
  melting point: "145 to 147 °C"
- Smiles Code: "O=C(O)c1cccc(-c2ccccc2-c2nc(-c3ccncc3)no2)c1"
  melting point: "288 to 289 °C"

Provide melting point value for the following molecule: `O=C(O)c1ccccc1-c1ccccc1C(=O)Nc1ccncc1`
190 to 191 °C

* * *

Here the recorded melting point is given for each entry.

Below, each entry is followed by its recorded melting point result.
- Compound: "O=C(O)c1ccccc1-c1ccccc1C(=O)N1CCCc2ccc(Br)cc21 [Compound A6]"
  Value Type: "melting point"
  Reported Measurement: "231 to 233 °C"
- Compound: "COc1cccc(-c2ccc3c(c2)N(C(=O)c2ccccc2-c2ccccc2C(=O)O)CCC3)c1 [Compound A14]"
  Value Type: "melting point"
  Reported Measurement: "177 to 179 °C"

Provide melting point value for the following compound: O=C(O)c1ccccc1-c1ccccc1-c1nc(-c2ccsc2)no1 [Compound B10]
146 to 148 °C

Provide melting point value for the following compound: Cc1cc(-c2noc(-c3ccccc3-c3ccccc3C(=O)O)n2)ccn1 [Compound B18]
228 to 230 °C

Provide melting point value for the following compound: Cc1cc(-c2noc(-c3ccccc3-c3ccccc3C(=O)O)n2)cc(C)n1 [Compound B20]
214 to 216 °C

Provide melting point value for the following compound: O=C(O)c1ccccc1-c1ccccc1-c1nnc(-c2ccncc2)o1 [Compound B30]
237 to 239 °C

Provide melting point value for the following compound: O=C(O)c1ccccc1-c1ccccc1-c1nc(-c2ccnc3ccccc23)no1 [Compound B22]
258 to 259 °C

Provide melting point value for the following compound: O=C(O)c1ccccc1-c1ccccc1C(=O)Nc1ccnc2ccccc12 [Compound A19]
176 to 178 °C

Provide melting point value for the following compound: O=C(O)c1ccccc1-c1ccccc1C(=O)N1CCCc2ccc(-c3ccc(F)cc3)cc21 [Compound A12]
245 to 246 °C
